Source listed as patent US20250186627A1.

- Tested on: NRG-mice bearing LNCaP tumors
- METHOD NOTES: Biodistribution (and PET/SPECT imaging) in NRG-mice bearing LNCaP tumors
- Type: in vivo
- APPLIED CONDITIONS: 72 h p.i., Avg
*1 amine or outer side, *2 acyl side, *3 side chain or, on linkers, in order; H or OH if unused. Where a SMILES comes first, the peptide text is derived from it. [ ]: non-standard residue; d: D form. The star is where a group is joined. ξ: configuration not given here. ξLys(Nα-CO-ξAad) = O=C(O)CCCC(NC(=O)NC(CCCCN*)C(=O)O)C(=O)O; Butanoyl(4-(4-NO2Ph)) = O=C(CCCc1ccc([N+](=O)[O-])cc1)*; DOTA = O=C(O)CN1CCN(CC(=O)O)CCN(CC(=O)*)CCN(CC(=O)O)CC1; Butanoyl(4-(4-MeO-phenyl)) = COc1ccc(CCCC(=O)*)cc1; ξAla(9-anthryl) = NC(Cc1c2ccccc2cc2ccccc12)C(=O)O; X2 = O=C(NC(CCCCN*)C(=O)O)NC(CC(F)C(=O)O)C(=O)O; X1 = O=C(C1CCC(CN[*:1])CC1)[*:2]; ξK = NCCCCC(N)C(=O)O
Reported Biodistribution: Thyroid values for the following compounds.
Return type: number; implicit unit % ID/g.

# COMPOUND, TESTED TARGET, VALUE TYPE, READOUT VALUE
measured = [
    ("COc1ccc(CCCC(=O)NCC(=O)NC(CCCCNC(=O)CN2CCN(CC(=O)[O-])CCN(CC(=O)[O-])CCN(CC(=O)[O-])CC2)CC(=O)NCC2CCC(C(=O)NC(Cc3c4ccccc4cc4ccccc34)C(=O)NCCCCC(NC(=O)NC(CC(F)C(=O)O)C(=O)O)C(=O)O)CC2)cc1.[177Lu+3] (stereo not drawn) [^177Lu-CCZ02019]", "NRG-mice bearing LNCaP tumors", "Biodistribution: Thyroid", 0.37),
]

The recorded Biodistribution: Thyroid with NRG-mice bearing LNCaP tumors for COc1ccc(CCCC(=O)NCC(=O)NC(CCCCNC(=O)CN2CCN(CC(=O)[O-])CCN(CC(=O)[O-])CCN(CC(=O)[O-])CC2)C(=O)NCC(=O)NCC2CCC(C(=O)NC(Cc3c4ccccc4cc4ccccc34)C(=O)NCCCCC(NC(=O)NC(CC(F)C(=O)O)C(=O)O)C(=O)O)CC2)cc1.[177Lu+3] (stereo not drawn) [^177Lu-CCZ02008] ({Butanoyl(4-(4-MeO-phenyl))}-G[ξK](DOTA)G[X1][ξAla(9-anthryl)]-X2) was 0.65

The recorded Biodistribution: Thyroid with NRG-mice bearing LNCaP tumors for O=C([O-])CN1CCN(CC(=O)[O-])CCN(CC(=O)NCCCCC(NC(=O)CNC(=O)CCCc2ccc([N+](=O)[O-])cc2)C(=O)NCC(=O)NCC2CCC(C(=O)NC(Cc3c4ccccc4cc4ccccc34)C(=O)NCCCCC(NC(=O)NC(CCCC(=O)O)C(=O)O)C(=O)O)CC2)CCN(CC(=O)[O-])CC1.[177Lu+3] (stereo not drawn) [^177Lu-CCZ02017] ({Butanoyl(4-(4-NO2Ph))}-G[ξK](DOTA)G[X1][ξAla(9-anthryl)]-{ξLys(Nα-CO-ξAad)}) was 0.16

----------
- System: NRG-mice bearing LNCaP tumors
- METHOD NOTES: Biodistribution (and PET/SPECT imaging) in NRG-mice bearing LNCaP tumors
- Assay type: in vivo
- APPLIED CONDITIONS: 3 h p.i., Avg
*1 amine or outer side, *2 acyl side, *3 side chain or, on linkers, in order; H or OH if unused. Where a SMILES comes first, the peptide text is derived from it. [ ]: non-standard residue; d: D form. The star is where a group is joined. ξ: configuration not given here. ξLys(Nα-CO-ξAad) = O=C(O)CCCC(NC(=O)NC(CCCCN*)C(=O)O)C(=O)O; Butanoyl(4-(4-NO2Ph)) = O=C(CCCc1ccc([N+](=O)[O-])cc1)*; DOTA = O=C(O)CN1CCN(CC(=O)O)CCN(CC(=O)*)CCN(CC(=O)O)CC1; Butanoyl(4-(4-MeO-phenyl)) = COc1ccc(CCCC(=O)*)cc1; ξAla(9-anthryl) = NC(Cc1c2ccccc2cc2ccccc12)C(=O)O; X2 = O=C(NC(CCCCN*)C(=O)O)NC(CC(F)C(=O)O)C(=O)O; X1 = O=C(C1CCC(CN[*:1])CC1)[*:2]; ξK = NCCCCC(N)C(=O)O
Reported Biodistribution: Blood values for the following compounds.
Return type: number; implicit unit % ID/g.

# COMPOUND, VALUE TYPE, READOUT VALUE
rows = [
    ("O=C([O-])CN1CCN(CC(=O)[O-])CCN(CC(=O)NCCCCC(NC(=O)CNC(=O)CCCc2ccc([N+](=O)[O-])cc2)C(=O)NCC(=O)NCC2CCC(C(=O)NC(Cc3c4ccccc4cc4ccccc34)C(=O)NCCCCC(NC(=O)NC(CCCC(=O)O)C(=O)O)C(=O)O)CC2)CCN(CC(=O)[O-])CC1.[225Ac+3] (stereo not shown) [^225Ac-CCZ02017] ({Butanoyl(4-(4-NO2Ph))}-G[ξK](DOTA)G[X1][ξAla(9-anthryl)]-{ξLys(Nα-CO-ξAad)})", "Biodistribution: Blood", 9.83),
]

Item: O=C([O-])CN1CCN(CC(=O)[O-])CCN(CC(=O)NCCCCC(NC(=O)CNC(=O)CCCc2ccc([N+](=O)[O-])cc2)C(=O)NCC(=O)NCC2CCC(C(=O)NC(Cc3c4ccccc4cc4ccccc34)C(=O)NCCCCC(NC(=O)NC(CCCC(=O)O)C(=O)O)C(=O)O)CC2)CCN(CC(=O)[O-])CC1.[177Lu+3] (stereo not shown) [^177Lu-CCZ02017] ({Butanoyl(4-(4-NO2Ph))}-G[ξK](DOTA)G[X1][ξAla(9-anthryl)]-{ξLys(Nα-CO-ξAad)}) | Biodistribution: Blood: 14.17

Item: O=C([O-])CN1CCN(CC(=O)[O-])CCN(CC(=O)NCCCCC(NC(=O)CNC(=O)CCCc2ccc([N+](=O)[O-])cc2)C(=O)NCC(=O)NCC2CCC(C(=O)NC(Cc3c4ccccc4cc4ccccc34)C(=O)NCCCCC(NC(=O)NC(CC(F)C(=O)O)C(=O)O)C(=O)O)CC2)CCN(CC(=O)[O-])CC1.[68Ga+3] (stereo not shown) [^68Ga-CCZ02025] ({Butanoyl(4-(4-NO2Ph))}-G[ξK](DOTA)G[X1][ξAla(9-anthryl)]-X2) | Biodistribution: Blood: 13.83

Item: COc1ccc(CCCC(=O)NCC(=O)NC(CCCCNC(=O)CN2CCN(CC(=O)[O-])CCN(CC(=O)[O-])CCN(CC(=O)[O-])CC2)C(=O)NCC(=O)NCC2CCC(C(=O)NC(Cc3c4ccccc4cc4ccccc34)C(=O)NCCCCC(NC(=O)NC(CCCC(=O)O)C(=O)O)C(=O)O)CC2)cc1.[68Ga+3] (stereo not shown) [^68Ga-CCZ02009] ({Butanoyl(4-(4-MeO-phenyl))}-G[ξK](DOTA)G[X1][ξAla(9-anthryl)]-{ξLys(Nα-CO-ξAad)}) | Biodistribution: Blood: 19.18
